Tested on: Diglycosidase derived from A. fumigatus
Assay explanation: Reactivity toward various isoflavone glycosides (HPLC)
Type: biochemical, Aspergillus fumigatus
Parameters: unit not given here
Experimental context: Reaction time 1 h; 55 °C, pH 4.0
Quick reference for glucoside among some molecules
Attribute measured: glucoside

{"columns": ["Molecule", "Attribute measured", "Endpoint result"],
 "data": [
  ["COc1cc2c(=O)c(-c3ccc(O)cc3)coc2cc1O[C@@H]1O[C@H](CO)[C@@H](O)[C@H](O)[C@H]1O [glycitin]", "glucoside", 99.5],
  ["O=c1c(-c2ccc(O)cc2)coc2cc(O[C@@H]3O[C@H](CO)[C@@H](O)[C@H](O)[C@H]3O)ccc12 [daidzin]", "glucoside", 92.9],
  ["O=C(O)CC(=O)OC[C@H]1O[C@@H](Oc2ccc3c(=O)c(-c4ccc(O)cc4)coc3c2)[C@H](O)[C@@H](O)[C@@H]1O [malonyldaidzin, 6″-O-malonyldaidzin]", "glucoside", 90],
  ["COc1cc2c(=O)c(-c3ccc(O)cc3)coc2cc1O[C@@H]1O[C@H](COC(=O)CC(=O)O)[C@@H](O)[C@H](O)[C@H]1O [malonylglycitin, 6″-O-malonylglycitin]", "glucoside", 99.6],
  ["COc1cc2c(=O)c(-c3ccc(O)cc3)coc2cc1O[C@@H]1O[C@H](COC(C)=O)[C@@H](O)[C@H](O)[C@H]1O [acetylglycitin, 6″-O-acetylglycitin]", "glucoside", 94],
  ["CC(=O)OC[C@H]1O[C@@H](Oc2ccc3c(=O)c(-c4ccc(O)cc4)coc3c2)[C@H](O)[C@@H](O)[C@@H]1O [acetyldaidzin, 6″-O-acetyldaidzin]", "glucoside", 73.9],
  ["O=C(O)CC(=O)OC[C@H]1O[C@@H](Oc2cc(O)c3c(=O)c(-c4ccc(O)cc4)coc3c2)[C@H](O)[C@@H](O)[C@@H]1O [malonylgenistin, 6″-O-malonylgenistin]", "glucoside", 97.6],
  ["O=c1c(-c2ccc(O)cc2)coc2cc(O[C@@H]3O[C@H](CO)[C@@H](O)[C@H](O)[C@H]3O)cc(O)c12 [genistin]", "glucoside", 100],
  ["CC(=O)OC[C@H]1O[C@@H](Oc2cc(O)c3c(=O)c(-c4ccc(O)cc4)coc3c2)[C@H](O)[C@@H](O)[C@@H]1O [acetylgenistin, 6″-O-acetylgenistin]", "glucoside", 87.4]
]}

* * *

System: Crude diglycosidase
Assay explanation: Examination of substrate concentration in the conversion into isoflavone aglycons by diglycosidase using soybean materials;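 note: percent of the isoflavone family total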
Format: biochemical, Penicillium multicolor IAM7153
Experimental context: soymilk, substrate concentration 2%, heat treatment of enzyme yes, reaction time 6 h
Attribute measured: Decomposition efficiency: ratio of each glycoside/aglycon within its isoflavone family

{"columns": ["Mol", "Endpoint result"],
 "data": [
  ["COc1cc2c(=O)c(-c3ccc(O)cc3)coc2cc1O[C@@H]1O[C@H](CO)[C@@H](O)[C@H](O)[C@H]1O", "51.8%"],
  ["COc1cc2c(=O)c(-c3ccc(O)cc3)coc2cc1O[C@@H]1O[C@H](COC(=O)CC(=O)O)[C@@H](O)[C@H](O)[C@H]1O", "48.2%"],
  ["COc1cc2c(=O)c(-c3ccc(O)cc3)coc2cc1O[C@@H]1O[C@H](COC(C)=O)[C@@H](O)[C@H](O)[C@H]1O", "not detected"],
  ["CC(=O)OC[C@H]1O[C@@H](Oc2ccc3c(=O)c(-c4ccc(O)cc4)coc3c2)[C@H](O)[C@@H](O)[C@@H]1O", "not detected"],
  ["COc1cc2c(=O)c(-c3ccc(O)cc3)coc2cc1O", "not detected"],
  ["O=c1c(-c2ccc(O)cc2)coc2cc(O[C@@H]3O[C@H](CO)[C@@H](O)[C@H](O)[C@H]3O)ccc12", "39.8%"],
  ["O=C(O)CC(=O)OC[C@H]1O[C@@H](Oc2ccc3c(=O)c(-c4ccc(O)cc4)coc3c2)[C@H](O)[C@@H](O)[C@@H]1O", "47.0%"],
  ["O=C(O)CC(=O)OC[C@H]1O[C@@H](Oc2cc(O)c3c(=O)c(-c4ccc(O)cc4)coc3c2)[C@H](O)[C@@H](O)[C@@H]1O", "49.5%"],
  ["CC(=O)OC[C@H]1O[C@@H](Oc2cc(O)c3c(=O)c(-c4ccc(O)cc4)coc3c2)[C@H](O)[C@@H](O)[C@@H]1O", "not detected"],
  ["O=c1c(-c2ccc(O)cc2)coc2cc(O[C@@H]3O[C@H](CO)[C@@H](O)[C@H](O)[C@H]3O)cc(O)c12", "38.0%"]
]}

* * *

Tested on: Crude diglycosidase
Assay explanation: Examination of temperature in the conversion into isoflavone aglycons by diglycosidase using soybean materials
Assay type: biochemical, Penicillium multicolor IAM7153
Experimental context: 55 °C; heat treatment of enzyme: yes; 6 h
Attribute measured: Decomposition efficiency of glycitin family in soymilk (%)

{"columns": ["Compound", "Target of assay", "Measurement unit", "Endpoint result"],
 "data": [
  ["COc1cc2c(=O)c(-c3ccc(O)cc3)coc2cc1O[C@@H]1O[C@H](COC(=O)CC(=O)O)[C@@H](O)[C@H](O)[C@H]1O [malonylglycitin, 6″-O-malonylglycitin]", "Crude diglycosidase", "%", 39.9],
  ["COc1cc2c(=O)c(-c3ccc(O)cc3)coc2cc1O [glycitein]", "Crude diglycosidase", "%", 6.7],
  ["COc1cc2c(=O)c(-c3ccc(O)cc3)coc2cc1O[C@@H]1O[C@H](CO)[C@@H](O)[C@H](O)[C@H]1O [glycitin]", "Crude diglycosidase", "%", 53.5]
]}

* * *

Tested on: Crude diglycosidase
Assay explanation: Examination of temperature in the conversion into isoflavone aglycons by diglycosidase using soybean materials
Type: biochemical, Penicillium multicolor IAM7153
Design: concentration or dose not given beside the values
Experimental context: 30 °C; heat treatment of enzyme: no; 1 h
Below, each of the molecules is paired with its reported Decomposition efficiency of daidzin family in soymilk value.
Attribute measured: Decomposition efficiency of daidzin family in soymilk (%)

{"columns": ["Molecule", "Endpoint result"],
 "data": [
  ["O=C(O)CC(=O)OC[C@H]1O[C@@H](Oc2ccc3c(=O)c(-c4ccc(O)cc4)coc3c2)[C@H](O)[C@@H](O)[C@@H]1O [malonyldaidzin, 6″-O-malonyldaidzin]", 58.2],
  ["O=c1c(-c2ccc(O)cc2)coc2cc(O)ccc12 [daidzein]", 41.8]
]}

* * *

Reported values of Decomposition efficiency of daidzin family in soymilk for individual entries
Test system: Crude diglycosidase
Assay explanation: Examination of temperature in the conversion into isoflavone aglycons by diglycosidase using soybean materials
Format: biochemical, Penicillium multicolor IAM7153
Design: concentration or dose not given beside the values
Experimental context: 45 °C; heat treatment of enzyme: no; 1 h
Attribute measured: Decomposition efficiency of daidzin family in soymilk (%)

{"columns": ["Mol", "Measurement unit", "Endpoint result"],
 "data": [
  ["O=C(O)CC(=O)OC[C@H]1O[C@@H](Oc2ccc3c(=O)c(-c4ccc(O)cc4)coc3c2)[C@H](O)[C@@H](O)[C@@H]1O", "%", 50.2],
  ["O=c1c(-c2ccc(O)cc2)coc2cc(O)ccc12", "%", 43.0],
  ["O=c1c(-c2ccc(O)cc2)coc2cc(O[C@@H]3O[C@H](CO)[C@@H](O)[C@H](O)[C@H]3O)ccc12", "%", 6.8]
]}

* * *

Tested on: Crude diglycosidase
Assay explanation: Examination of pH in the conversion into isoflavone aglycons by diglycosidase using soybean materials
Assay type: biochemical, Penicillium multicolor IAM7153
Experimental context: pH8.5, heat treatment of enzyme yes, reaction time 6 h, 55° C.
Attribute measured: Decomposition efficiency of glycitin family in roasted soy flour

{"columns": ["Molecule", "Target of assay", "Endpoint result"],
 "data": [
  ["COc1cc2c(=O)c(-c3ccc(O)cc3)coc2cc1O[C@@H]1O[C@H](CO)[C@@H](O)[C@H](O)[C@H]1O [glycitin]", "Crude diglycosidase", 59.2],
  ["COc1cc2c(=O)c(-c3ccc(O)cc3)coc2cc1O [glycitein]", "Crude diglycosidase", 9.1],
  ["COc1cc2c(=O)c(-c3ccc(O)cc3)coc2cc1O[C@@H]1O[C@H](COC(C)=O)[C@@H](O)[C@H](O)[C@H]1O [acetylglycitin, 6″-O-acetylglycitin]", "Crude diglycosidase", 31.7]
]}

* * *

Test system: Crude diglycosidase
Assay explanation: Examination of pH in the conversion into isoflavone aglycons by diglycosidase using soybean materials
Assay type: biochemical, Penicillium multicolor IAM7153
Experimental context: pH4.8, heat treatment of enzyme no, reaction time 3 h, 55° C.
Attribute measured: Decomposition efficiency of glycitin family in soymilk

{"columns": ["Compound", "Endpoint result"],
 "data": [
  ["COc1cc2c(=O)c(-c3ccc(O)cc3)coc2cc1O [glycitein]", 78.9],
  ["COc1cc2c(=O)c(-c3ccc(O)cc3)coc2cc1O[C@@H]1O[C@H](COC(=O)CC(=O)O)[C@@H](O)[C@H](O)[C@H]1O [malonylglycitin, 6″-O-malonylglycitin]", 21.1]
]}

Origin of values: patent US7118895B2
